Data origin: paper PMC10093973

Molecular target: T1, NUCB1 CaBD (Homo sapiens, UniProt Q02818 228-326)
T1 sequence: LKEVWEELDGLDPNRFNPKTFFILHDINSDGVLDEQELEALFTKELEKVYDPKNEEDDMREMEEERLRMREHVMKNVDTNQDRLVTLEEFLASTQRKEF
Test: SPR; SPR: 50 mM Tris-HCl pH 8.0, 200 mM NaCl, 0.1% Tween-20, with or without 2 mM CaCl2, 25 °C; 5'-biotinylated RNA immobilized, NUCB1 as analyte, 1:1 model
Details: protein: recombinant; tags: N-terminal His6; label: 5'-biotin
PROPERTY NAME: Kd (nM)
Answer in nM, number only, no unit symbol.

Task: Using the record for GUGGUCAGUCGAGUGGUAACACUGUCUGGUAACGAUGU (ssRNA) [miR-200a-3p] , report its Kd.
Output: 5.2
